Exercise: state measured pIC50 for each of the compounds provided.
Tgt: His-tagged CRBN-DDB1 complex (Homo sapiens (Human))
Sequence (Q96SW2 whole entry): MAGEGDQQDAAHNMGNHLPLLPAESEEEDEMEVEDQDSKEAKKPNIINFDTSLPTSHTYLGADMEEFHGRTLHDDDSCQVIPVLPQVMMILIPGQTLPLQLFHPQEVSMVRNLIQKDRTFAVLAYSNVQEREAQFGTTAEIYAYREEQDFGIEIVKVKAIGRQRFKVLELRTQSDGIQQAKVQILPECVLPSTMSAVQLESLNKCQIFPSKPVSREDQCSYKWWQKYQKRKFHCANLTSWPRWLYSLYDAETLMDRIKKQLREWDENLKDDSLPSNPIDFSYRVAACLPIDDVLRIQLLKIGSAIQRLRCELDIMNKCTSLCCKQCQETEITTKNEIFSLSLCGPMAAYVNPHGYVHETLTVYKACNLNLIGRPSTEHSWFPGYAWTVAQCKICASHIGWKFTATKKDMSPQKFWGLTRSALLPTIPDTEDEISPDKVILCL
Sequence (Q16531 whole entry partner): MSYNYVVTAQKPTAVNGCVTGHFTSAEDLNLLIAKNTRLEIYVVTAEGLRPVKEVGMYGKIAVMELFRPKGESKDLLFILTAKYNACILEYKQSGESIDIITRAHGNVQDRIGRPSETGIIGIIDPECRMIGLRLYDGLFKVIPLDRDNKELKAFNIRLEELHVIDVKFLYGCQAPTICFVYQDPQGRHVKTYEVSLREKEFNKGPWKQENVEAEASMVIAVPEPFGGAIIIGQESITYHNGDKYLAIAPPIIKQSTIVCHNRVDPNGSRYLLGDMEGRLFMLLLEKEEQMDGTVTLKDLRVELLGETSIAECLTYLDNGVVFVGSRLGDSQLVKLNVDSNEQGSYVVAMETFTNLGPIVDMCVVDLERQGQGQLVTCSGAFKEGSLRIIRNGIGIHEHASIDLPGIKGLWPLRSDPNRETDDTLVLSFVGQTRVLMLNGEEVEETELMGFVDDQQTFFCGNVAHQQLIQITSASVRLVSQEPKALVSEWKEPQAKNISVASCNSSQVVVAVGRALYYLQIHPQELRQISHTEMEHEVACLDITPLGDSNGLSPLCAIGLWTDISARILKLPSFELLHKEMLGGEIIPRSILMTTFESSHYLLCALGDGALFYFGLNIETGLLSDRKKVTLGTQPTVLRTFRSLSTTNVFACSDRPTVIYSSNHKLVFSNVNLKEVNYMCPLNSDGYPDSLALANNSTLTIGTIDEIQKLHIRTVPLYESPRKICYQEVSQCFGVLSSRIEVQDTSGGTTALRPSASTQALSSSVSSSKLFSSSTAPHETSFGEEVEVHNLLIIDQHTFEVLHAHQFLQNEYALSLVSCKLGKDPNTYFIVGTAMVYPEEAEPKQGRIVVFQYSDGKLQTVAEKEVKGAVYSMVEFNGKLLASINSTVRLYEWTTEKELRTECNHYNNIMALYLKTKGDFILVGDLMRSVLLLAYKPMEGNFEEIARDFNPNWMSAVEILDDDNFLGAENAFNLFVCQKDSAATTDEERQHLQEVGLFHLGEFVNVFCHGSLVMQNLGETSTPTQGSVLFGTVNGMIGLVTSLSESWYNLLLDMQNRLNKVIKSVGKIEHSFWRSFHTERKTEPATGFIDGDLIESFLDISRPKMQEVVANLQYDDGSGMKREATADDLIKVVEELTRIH
Protocol Summary: Time-resolved fluorescence resonance energy transfer (TR-FRET) assay, displacement of Cy5-labeled thalidomide
Type: binding
Assay Context: read-out: CRBN HTRF IC50
pIC50: −log10 of the molar value.

Take each entry in turn and give its pIC50.
1. O=C1CCC(n2c3ccccc3c3ccc(Cl)nc32)C(=O)N1 (centres unmarked) [I-75]
2. CC(C)(C)OC(=O)NCCOCCOCCCc1ccnc2c1c1ccccc1n2C1CCC(=O)NC1=O (centres unmarked) [I-57]
3. CC(C)(C)OC(=O)NCCOCCNC(=O)NCc1ccc2c(c1)c1cccnc1n2C1CCC(=O)NC1=O (centres unmarked) [I-37]
4. O=C1CCC(n2c3c(c4cccnc42)CCCC3)C(=O)N1 (centres unmarked) [I-70]
5. O=C1CCC(n2c3ccccc3c3ccc(F)nc32)C(=O)N1 (centres unmarked) [I-84]
6. CC(C)(C)OC(=O)NCCOCCOCCCc1ccc2c3ccccc3n(C3CCC(=O)NC3=O)c2n1 (centres unmarked) [I-73]
7. O=C1CCC(n2c3ccncc3c3cccnc32)C(=O)N1 (centres unmarked) [I-56]

1. > 5.00
2. > 5.00
3. 4.52 to 5.00
4. 4.52 to 5.00
5. > 5.00
6. 4.52 to 5.00
7. 4.52 to 5.00
